# credit: PubChem BioAssay (EPA / NIEHS)

read-out: Vascular cell adhesion molecule 1 (VCAM1), VCAM1 (gene 7412); assay: BSK_LPS_VCAM1: BioMAP Diversity Plus: LPS Assay for Vascular cell adhesion molecule 1 (VCAM1) Biomarker Activity (AID 2283086); conditions: primary human HUVEC with PBMC; actives raise or lower the signal
Active and inactive are the calls of the source. The calls were made as follows: active = hit-call score of the fitted dose curve at least 0.9, where 1 is the maximum; inactive = score below 0.9.
In this exercise, the only acceptable responses are active, inactive

Problem: Write down the call the test reported for this compound. Item: `CC(=O)O`
Result: inactive

Problem: Record lookup: outcome of this test for `CCCC(=O)O` ?
Result: inactive

Problem: How was `CC(C)(C)c1ccccc1` classified in this test?
Result: inactive

Problem: Answer briefly: the call reported for `CSc1ccc(Oc2ccc(S(N)(=O)=O)cc2CN(C)C)cc1C` in this assay.
Result: inactive

Problem: For `CC(C)(O)c1ccc(CNC(=O)c2cccnc2Oc2ccc(F)cc2)cc1` , which call appears in the assay record?
Result: inactive

Problem: Given `NC(=Nc1ccccc1)Nc1ccccc1` , state the outcome it received in this test.
Result: inactive

Problem: Please share the test call associated with `Cc1ccc(C(C)(C)C)c(O)c1` .
Result: inactive

Problem: Field: outcome | Entry: `CC(C)c1cccc(C(C)C)c1NC(=O)NS(=O)(=O)c1cc(C(C)(C)O)co1`
Result: inactive

Problem: Assay result, entry `CCCCOC(=O)CCCCC(=O)OCCCC` — outcome?
Result: inactive

Problem: # fetch the recorded call for `CC(=O)[C@@]1(O)CC[C@H]2[C@@H]3CCC4=CC(=O)CC[C@]4(C)[C@H]3CC[C@@]21C` here
Result: inactive

Problem: I'd appreciate the recorded outcome for `OCC(O)CO` from this test.
Result: inactive

Problem: Call for entry `CC(C)OC(=O)C(C)(C)Oc1ccc(C(=O)c2ccc(Cl)cc2)cc1` :
Result: active

Problem: Please let me know the test result on file for `CCc1nc(N)nc(N)c1-c1ccc(Cl)cc1` .
Result: inactive

Problem: # fetch the recorded call for `CC(N)=O` here
Result: inactive

* * *

read-out: Vascular cell adhesion molecule 1 (VCAM1), VCAM1 (gene 7412); assay: BSK_4H_VCAM1: BioMAP Diversity Plus: 4H Assay for Vascular cell adhesion molecule 1 (VCAM1) Biomarker Activity (AID 2283033); conditions: primary human endothelial cells (HUVEC); actives raise or lower the signal
Activity calls are given as the source filed them. How the source made its calls: active means hit-call score of the fitted dose curve at least 0.9, where 1 is the maximum; inactive means score below 0.9.
readoutName: AC50

# example entries with known answers
{"compound": "CN(C)C(=O)NC1(c2ccccc2)CCN(CC[C@@]2(c3ccc(F)c(F)c3)CN(C(=O)c3ccccc3)CCO2)CC1", "AC50": "inactive"}
{"compound": "Cn1cnc2c1c(=O)[nH]c(=O)n2C", "AC50": "inactive"}
{"compound": "Cc1cc(SC2=C(O)C[C@@](CCc3ccc(N)cc3)(C(C)C)OC2=O)c(C(C)(C)C)cc1CO", "AC50": "inactive"}
{"compound": "COC(=O)CCC(=O)OC", "AC50": "inactive"}
{"compound": "Oc1ccccc1O", "AC50": "5.53 µM (active)"}

Your task in this section: give AC50 for each listed record.
1. CCCCCCCCCC[N+](C)(C)[O-]
2. C/C=C/c1ccc(OC)cc1
3. O=C1OC(c2ccc(O)cc2)(c2ccc(O)cc2)c2ccccc21
4. O=C(O)CN(CC(=O)O)CC(=O)O
5. O=[Si]=O
6. CC(COCC(C)OC(=O)c1ccccc1)OC(=O)c1ccccc1 (configuration not stated)
7. O=C(N[C@@H](c1ccccc1)[C@@H]1CCCCN1)c1cccc(C(F)(F)F)c1Cl

Result:
1. inactive
2. inactive
3. 30.8 µM (active)
4. inactive
5. inactive
6. inactive
7. inactive
